System: centrosome-amplified (4NCA) DLD1 cells
Assay: Multipolar spindle assay (4NCA cell line)
Format: cell-based, human
Details: 15 μM, centrosome-amplified (4NCA) DLD1 cell line
Description: The cellular models consisted of chromosomally stable human colon cancer DLD1 diploid (2N) and tetraploid (4N) cells, along with tetraploid centrosome -amplified (4NCA) DLD1 cells and DLD1 HSET knockout (KO) cells. […] Inhibition of HSET-mediated clustering was measured using a phenotypic assay measuring the formation of multipolar metaphase spindles in DLD1 cells with (4NCA) or without (4N) centrosome amplification. […]
Entries annotated with measured increase in mitotic spindle multipolarity (4NCA)

Some compounds with known increase in mitotic spindle multipolarity (4NCA) results, for comparison:
CCOC(=O)c1sc(NC(=O)CCNC(=O)c2cccc(-c3noc(C)n3)c2)cc1C: ~10%
CCOC(=O)c1sc(NC(=O)CCNC(=O)c2cccc(-c3nnn(C)n3)c2)nc1C: ~10%

I have this compound here, CCCOC(=O)c1sc(NC(=O)CCNC(=O)c2cccc(-c3noc(C)n3)c2)nc1C , and I need its recorded increase in mitotic spindle multipolarity (4NCA). 21%

I have this compound here, CCOC(=O)c1sc(NC(=O)CCNC(=O)c2cccc(-c3noc(C)n3)c2)nc1C , and I need its recorded increase in mitotic spindle multipolarity (4NCA). ~10%

---

Target: recombinant full-length HSET (Homo sapiens, UniProt Q9BW19)
Construct: 5 nM full-length human N-terminal His-tag HSET; His-tag (N)
Sequence (Q9BW19 whole entry): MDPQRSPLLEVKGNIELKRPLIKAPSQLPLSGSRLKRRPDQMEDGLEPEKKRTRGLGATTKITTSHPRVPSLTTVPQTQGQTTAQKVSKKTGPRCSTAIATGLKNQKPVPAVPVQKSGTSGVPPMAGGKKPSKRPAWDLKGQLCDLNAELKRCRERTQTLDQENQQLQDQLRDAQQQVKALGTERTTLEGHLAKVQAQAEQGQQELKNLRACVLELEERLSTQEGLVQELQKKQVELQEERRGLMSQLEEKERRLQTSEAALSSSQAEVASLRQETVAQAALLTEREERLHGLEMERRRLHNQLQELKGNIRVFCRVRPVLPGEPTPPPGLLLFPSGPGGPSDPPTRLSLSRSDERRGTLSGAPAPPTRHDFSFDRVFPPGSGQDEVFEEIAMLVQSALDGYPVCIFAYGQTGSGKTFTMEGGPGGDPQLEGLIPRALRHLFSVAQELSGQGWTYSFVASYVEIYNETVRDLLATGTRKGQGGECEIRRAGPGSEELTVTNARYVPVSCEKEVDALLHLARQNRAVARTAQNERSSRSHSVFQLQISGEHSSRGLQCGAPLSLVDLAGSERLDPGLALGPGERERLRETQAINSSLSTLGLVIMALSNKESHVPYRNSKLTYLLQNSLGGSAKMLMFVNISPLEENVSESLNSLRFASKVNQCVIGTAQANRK
Experiment: ADP-Glo HSET assay (3 μM ATP), microtubule-stimulated ATPase
Type: biochemical
Conditions: relative to 13
Protocol: The HSET or Eg5 ATPase activity was measured using the ADP-Glo Kinase Assay kit (Promega, V9102). […] The luminescence was read after 45 min on a PheraStar FSX plate reader (BMG Labtech). […] Percentage inhibition was determined based on normalization to high controls (0% inhibition, all reagents with 100 nL of DMSO alone) and low controls (100% inhibition as a high control, without HSET). […]
measurement.kind: fold reduction in HSET potency (fold)
Give just the number in fold; leave the unit off.

Some compounds with known fold reduction in HSET potency results, for comparison:
CCOC(=O)c1sc(NC(=O)CCNC(=O)c2cccc(-c3noc(CC)n3)c2)nc1C [Compound 14]: 33
CCOC(=O)c1cnc(NC(=O)CCNC(=O)c2cccc(-c3noc(C)n3)c2)s1 [Compound 19]: 65
CCOC(=O)c1sc(NC(=O)CCN(C)C(=O)c2cccc(-c3noc(C)n3)c2)nc1C [Compound 24]: 700

I have this compound here, Cc1csc(NC(=O)CCNC(=O)c2cccc(-c3noc(C)n3)c2)n1 [Compound 20] , and I need its recorded fold reduction in HSET potency. 3000

---

biological target: recombinant full-length HSET (Homo sapiens, UniProt Q9BW19); construct: 5 nM full-length human N-terminal His-tag HSET; His-tag (N); assay: ADP-Glo HSET assay (3 μM ATP), microtubule-stimulated ATPase; type: biochemical; conditions: preformed microtubules, 3 μM ATP; mean (±SD) n ≥ 3; >200 from a single determination (Table 2); read-out: HSET ADP-Glo IC50
measurement.kind: IC50 (µM)
Give just the number in µM; leave the unit off.

CCOC(=O)c1ccc(NC(=O)CCNC(=O)c2cccc(-c3noc(C)n3)c2)nc1C: 11.5
CCOC(=O)c1sc(N(C)C(=O)CCNC(=O)c2cccc(-c3noc(C)n3)c2)nc1C: 0.089
CCOC(=O)c1sc(C(=O)NCCNC(=O)c2cccc(-c3noc(C)n3)c2)nc1C: 0.405
CCCOC(=O)c1cc(NC(=O)CCNC(=O)c2cccc(-c3noc(C)n3)c2)nn1C: 0.157

We next turn to a different molecule, shown below.
I have this molecule here, CCOC(=O)c1sc(NC(=O)C[C@H](C)NC(=O)c2cccc(-c3noc(C)n3)c2)nc1C , and I need its recorded IC50. 0.061
